# protocol: qHTS assay to test for compound auto fluorescence at 535 nm (green) in HEK293 cell free culture (AID 720682)
# cond: cell-free medium, green autofluorescence 485/535 nm, stronger effect = higher value; series mostly up to 91.3 µM
Activity calls are given as the source filed them. Calls follow the shape of the dose curve; as a rule, active = well fitted curve in the direction sought with a large enough effect in the repeat runs; inconclusive = weak or mixed curves; inactive = flat fitted curve, though single readings scatter.
endpoint-label: activity change

# molecule, endpoint-label, observed-measurement
measured = [
    ("NCCCN(CCO)CCO", "activity change", "inactive"),
    ("CC1CCc2cc(F)cc3c(=O)c(C(=O)O)cn1c23 (centres undefined)", "activity change", "inactive"),
    ("CC(C)CCCCCCOC(=O)c1ccc(C(=O)OCCCCCCC(C)C)c(C(=O)OCCCCCCC(C)C)c1", "activity change", "inactive"),
    ("COC(=O)C(C)=O", "activity change", "inactive"),
]

----------
# protocol: qHTS assay to identify small molecule agonists of the progesterone receptor (PR) signaling pathway - cell viability counter screen (AID 1346799); also: nearly all actives have a fitted effect of over 45% in size
# cond: PR-UAS-bla HEK293T viability, CellTiter-Glo luminescence, 16 h; series mostly up to 92.4 µM
# From the text: National Center for Advancing Translational Sciences [NCATS] NIH Chemical Genomics Center [NCGC] U.S. Environmental Protection Agency [EPA] National Institutes of Environmental Health Sciences [NIEHS] National Toxicology Program [NTP] U.S. Food and Drug Administration [FDA] Progesterone receptor (PR), a nuclear hormone receptor, plays an important role in development, metabolic homeostasis and reproduction. It is activated by the steroid hormone progesterone. […]
Results filed as inconclusive are left out. Active and inactive are the calls of the source. Calls come from the whole dose curve.
Pick one and only one: YES (active), NO (inactive)

Worked examples, 4 compounds total:
# compound, class-assignment
data = [
    ("Oc1ccc(C(O)CNCCCCCCNCC(O)c2ccc(O)c(O)c2)cc1O (stereo not drawn)", "NO"),
    ("Cc1ccc2c(ccc3ccccc32)c1", "NO"),
    ("CCCCCCCCCCCCC(=O)O", "YES"),
    ("CC(=O)OCCc1ccccc1", "NO"),
]

Ask | So what was the verdict on CC(C)(C)c1ccc(OCC2CO2)cc1 (stereo not drawn) in this test?
Reply | NO

Ask | So what was the verdict on CCCCCCCC/C=C\CCCCCCCC(N)=O in this test?
Reply | NO

Ask | So what was the verdict on CCCC(=O)OCC in this test?
Reply | NO

Ask | So what was the verdict on OCCC1CCCCN1 (stereo not drawn) in this test?
Reply | NO

----------
# system-tested: Cytochrome P450 2D6 (Homo sapiens) (UniProt P10635)
# Sequence (P10635 whole entry, looked up): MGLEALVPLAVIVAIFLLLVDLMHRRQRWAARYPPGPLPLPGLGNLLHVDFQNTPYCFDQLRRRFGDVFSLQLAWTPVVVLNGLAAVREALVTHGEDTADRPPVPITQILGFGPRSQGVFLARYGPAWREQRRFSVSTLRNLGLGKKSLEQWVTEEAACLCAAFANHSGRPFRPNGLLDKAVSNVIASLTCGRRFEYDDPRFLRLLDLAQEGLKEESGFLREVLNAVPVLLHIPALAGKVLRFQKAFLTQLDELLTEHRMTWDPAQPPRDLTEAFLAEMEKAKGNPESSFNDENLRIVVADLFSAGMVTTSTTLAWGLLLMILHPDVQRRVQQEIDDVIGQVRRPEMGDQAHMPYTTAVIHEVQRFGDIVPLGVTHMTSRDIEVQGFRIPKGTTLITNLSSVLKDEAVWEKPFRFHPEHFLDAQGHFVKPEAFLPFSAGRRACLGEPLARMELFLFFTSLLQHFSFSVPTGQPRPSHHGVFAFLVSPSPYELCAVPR
# protocol: Cytochrome P450 Family 2 Subfamily D Member 6 (CYP2D6) small molecule antagonists: luciferase reporter qHTS assay (AID 1671196); also: nearly all actives have a fitted effect of over 50% in size
# cond: P450-Glo CYP2D6 enzyme assay, luciferin luminescence, 1 h; series mostly up to 115 µM
Records with an inconclusive call do not appear. Calls of active or inactive are those of the source. Calls follow the shape of the dose curve; as a rule, active = well fitted inhibition curve with a large enough effect in the repeat runs; inconclusive = weak or mixed curves; inactive = no such curve, though single readings can be large or run the other way.
Pick one and only one: active, inactive

Worked examples, 4 compounds total:
# compound, class-assignment
rows = [
    ("Cn1sccc1=O", "inactive"),
    ("Nc1nc(CC(=O)O)cs1", "active"),
    ("CC(C)(C)c1cc(CO)cc(C(C)(C)C)c1O", "active"),
    ("N#CCCNCCC#N", "inactive"),
]

Ask | So what was the verdict on O=C1Nc2cc(Cl)ccc2Oc2ccccc21 in this test?
Reply | inactive

Ask | So what was the verdict on CCOC(=O)C1=C(C)NC(C)=C(C(=O)OC)C1c1cccc([N+](=O)[O-])c1 (stereo unspecified) in this test?
Reply | inactive

Where do these numbers come from? They come from PubChem BioAssay (Tox21).
